Values compiled from paper PMC4807435.

protocolDetails: Population PK model of unbound and total LPV/RTV in HIV-infected pregnant women
Type: in vivo, human
details: female, human, plasma, oral, fu, estimate, final model; unbound fraction

>  <molecularString>
Cc1cccc(C)c1OCC(=O)N[C@@H](Cc1ccccc1)[C@@H](O)C[C@H](Cc1ccccc1)NC(=O)[C@H](C(C)C)N1CCCNC1=O

>  <fraction unbound>
0.0258

$$$$
